These data points were gathered from PubChem BioAssay (NCI).

Tested on: 786-0 renal
Test: NCI tumour cell line growth inhibition, 48 h; in the data active = GI50 below about 0.43 µM; inactive = the rest
Outcomes: yes (active), no (inactive)

[[record]]
compound = "C#CCN(Cc1nc2cc(C(F)(F)F)ccc2nc1-c1ccccc1)c1ccc(F)cc1"
label = "no"

[[record]]
compound = "O=C1c2ccccc2-c2c1c1ccc([N+](=O)[O-])cc1c(=O)n2CCCn1ccnc1"
label = "yes"

[[record]]
compound = "CCCC(=O)Nc1c(I)cc(I)c(CC(CC)C(=O)O)c1I (configuration not stated)"
label = "no"

[[record]]
compound = "COC1C(O)CC(OC2CC(OC3CC(O[C@@H]4C(=O)c5c(cc6cc(OC7CC(OC8CC(O)C(O)C(C)O8)C(O)C(C)O7)c(C)c(O)c6c5O)CC4[C@H](OC)[C@@H](O)C(C)=O)OC(C)C3O)OC(C)C2O)OC1C (some centres not stated)"
label = "yes"

[[record]]
compound = "O=S(=O)(NCCNc1cc(-c2cn(-c3ccccc3)nc2-c2cccc(O)c2)ccn1)c1ccc(Br)cc1"
label = "no"

[[record]]
compound = "COc1c(Cl)[c]([Hg][O]C(C)=O)c(NCC(C)=O)c(OC)[c]1[Hg][O]C(C)=O"
label = "no"

[[record]]
compound = "N#Cc1ccc(NC(=O)Nc2nc3ccc(OC(F)(F)F)cc3s2)cc1"
label = "no"

[[record]]
compound = "CCCCCCCCCCCCC(NC(C)=O)(C(=O)OCC)C(=O)OCC"
label = "no"

[[record]]
compound = "COc1cc2c(cc1OC)-c1ncc3cc(OC)c(OC)cc3c1C2"
label = "no"

[[record]]
compound = "CN1CCN(Cc2ccc(NC(=O)c3cccc(C#Cc4c(N)ncc5ccc(F)cc45)c3)cc2C(F)(F)F)CC1"
label = "no"

[[record]]
compound = "COc1cccc(NC(=O)c2ccc(NC3=C(Cl)C(=O)N(Cc4ccccc4)C3=O)cc2)c1"
label = "no"

[[record]]
compound = "CC(=Nc1ccccc1)C1=C(O)C(Cc2ccc(F)cc2)NC1=O (configuration not stated)"
label = "no"

[[record]]
compound = "COc1ccccc1N1CCN(CCCOc2ccc(C(=O)/C=C3/C(=O)Nc4ccccc43)cc2)CC1"
label = "no"

[[record]]
compound = "NC(Cc1c[nH]c2cc(F)ccc12)C(=O)O (configuration not stated)"
label = "no"

[[record]]
compound = "Cc1ccccc1C[P+](c1ccccc1)(c1ccccc1)c1ccccc1"
label = "no"

[[record]]
compound = "Cc1cc(C)c(O)c(CNCCCNCc2cc(C)cc(C)c2O)c1"
label = "no"

[[record]]
compound = "COc1ccc(-c2cc(-c3ccc(Cl)cc3)nc(SCCCCCCC(=O)NO)n2)cc1"
label = "no"


====

Tested on: HCT-116 colon
Experiment: NCI tumour cell line growth inhibition, 48 h
ASSAY_READOUT: TGI (µM)

[[record]]
molecule = "COc1ccc(NS(=O)(=O)c2ccc(N=C3C=C(Nc4ccc(S(=O)(=O)Nc5ccc(OC)nn5)cc4)C(=O)c4ccccc43)cc2)nn1"
system_name = "HCT-116 colon"
value_units = "µM"
bound_operator = "="
result = 32

[[record]]
molecule = "C/C(=N\\Nc1nc2ccccc2o1)c1cc2ccccc2cn1"
system_name = "HCT-116 colon"
value_units = "µM"
bound_operator = "="
result = 15.8

[[record]]
molecule = "COc1ccc(-c2nc(SC)n(C3OC(COC(C)=O)C(OC(C)=O)C(OC(C)=O)C3OC(C)=O)c(=O)c2C#N)cc1 (stereo unspecified)"
system_name = "HCT-116 colon"
value_units = "µM"
bound_operator = ">"
result = 100

[[record]]
molecule = "OC1(C2(c3ccc(Cl)cc3)CCCC2)c2ccccc2C2=NCCN21 (stereo unspecified)"
system_name = "HCT-116 colon"
value_units = "µM"
bound_operator = "="
result = 24.4

[[record]]
molecule = "COc1ccc(C[C@H]2NC[C@H](O)[C@H]2OC(C)=O)cc1"
system_name = "HCT-116 colon"
value_units = "µM"
bound_operator = "="
result = 0.146

[[record]]
molecule = "N/C(=N\\N=C\\c1ccc(O)c(O)c1)NO"
system_name = "HCT-116 colon"
value_units = "µM"
bound_operator = ">"
result = 100

